Target: HLA-A*24:03
Test: IEDB peptide-MHC binding, purified MHC/direct/fluorescence; filed as Kd, often an IC50 or EC50 that approximates it; bounds were set here for any values at or beyond the usual limits of such assays
Details: source organism: Listeria monocytogenes
property_label: Kd

(Q) I have this sequence here, AFMRFDDQF , and I need its recorded Kd.
(A) ≤ 1 nM

----------
Molecular target: HLA-C*03:03
Experiment: IEDB peptide-MHC binding, purified MHC/direct/fluorescence; filed as Kd, often an IC50 or EC50 that approximates it; bounds were set here for any values at or beyond the usual limits of such assays
Settings: source organism: Japanese encephalitis virus
property_label: Kd

(Q) Look up Kd with HLA-C*03:03 for this sequence: VLNETTNWL
(A) ≥ 20 µM

----------
Biological target: HLA-A*01:01
Assay: IEDB peptide-MHC binding, purified MHC/direct/fluorescence; filed as Kd, often an IC50 or EC50 that approximates it; bounds were set here for any values at or beyond the usual limits of such assays
Conditions: source organism: Mammarenavirus juninense
property_label: pKd
Give bare numbers, as −log10 of the molar value.

(Q) I have this sequence here, ESSINISGY , and I need its recorded pKd.
(A) 6.46

----------
Target: HLA-A*26:01
Assay: IEDB peptide-MHC binding, purified MHC/direct/fluorescence; filed as Kd, often an IC50 or EC50 that approximates it; bounds were set here for any values at or beyond the usual limits of such assays
Details: source organism: Mycobacterium tuberculosis variant bovis
property_label: pKd
Answers are plain numbers, as −log10 of the molar value.

(Q) I have this sequence here, EIARIVEQM , and I need its recorded pKd.
(A) 6.71

----------
Target: HLA-B*07:02
Assay: IEDB peptide-MHC binding, purified MHC/direct/fluorescence; filed as Kd, often an IC50 or EC50 that approximates it; bounds were set here for any values at or beyond the usual limits of such assays
Conditions: source organism: Camelpox virus CMS
pKd: −log10 of the molar value.
property_label: pKd

(Q) Look up pKd with HLA-B*07:02 for this sequence: KVFFGPIYY
(A) ≤ 4.70

----------
Could you please report measured Kd for the items listed next?
Target: HLA-B*18:01
Test: IEDB peptide-MHC binding, purified MHC/direct/fluorescence; filed as Kd, often an IC50 or EC50 that approximates it; bounds were set here for any values at or beyond the usual limits of such assays
Details: source organism: Mycobacterium tuberculosis

ALRSRWRAL | ≥ 20 µM
APRARTAAF | 12.3 µM
GPASLPTAL | ≥ 20 µM

Each sequence below has a reported value. Please supply its Kd.
1. APRGFRAAF
2. RPRRASSPF
3. TIHLATAPK
4. EKAAWGVAL
5. KYFVRSTEK

(A)
["≥ 20 µM", "9.95 µM", "≥ 20 µM", "≥ 20 µM", "≥ 20 µM"]

----------
Target: HLA-A*69:01
Assay: IEDB peptide-MHC binding, purified MHC/direct/fluorescence; filed as Kd, often an IC50 or EC50 that approximates it; bounds were set here for any values at or beyond the usual limits of such assays
Conditions: source organism: Vibrio parahaemolyticus
property_label: Kd (nM)
One number for each entry, in nM.

(Q) I have this sequence here, FQYYGIDWV , and I need its recorded Kd.
(A) 496

----------
Target: HLA-A*02:01
Experiment: IEDB peptide-MHC binding, purified MHC/competitive/fluorescence; filed as Kd, often an IC50 or EC50 that approximates it; bounds were set here for any values at or beyond the usual limits of such assays
Settings: source organism: Yersinia pestis Nepal516
property_label: pKd
Answers are plain numbers, as −log10 of the molar value.

(Q) I have this sequence here, FSYNVAYAI , and I need its recorded pKd.
(A) 7.53
